Where these numbers come from: PubChem BioAssay AID2060606

Catalogue of viability, T/C values
test system: 922993-354-T-J3-PDC complex spheroids, viability, % test/control; assay: Anticancer human tumor 922993-354-T-J3-PDC patient-derived endometrial carcinoma cell line growth inhibition [CLK]; details: second compound 3.16 µM; first compound 0.0316 µM; active compounds read low;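 note: spheroids exposed to the agents for 7 days before readout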
Report only the number, with the unit % understood.

Can you share its viability, T/C? I mean this molecule: CC(Nc1ccc2c(c1)OCCn1cc(N3C(=O)OCC3C(F)F)nc1-2)C(N)=O (stereo not given) + CNC(=O)c1ccc(Nc2nc(OC3CCCC3)c3c(-c4ccc5nc(C)oc5c4)c[nH]c3n2)c(OC)c1 35.1

What does the record list as viability, T/C for Nc1ccn(C2OC(CO)C(O)C2(F)F)c(=O)n1 (stereo not given) + CN1CCN(c2cc(C(=O)Nc3cc4cc(-c5cnn(C)c5)ccc4cn3)ccn2)CC1 ? 0.11

Sample CC1(C)CCC(CN2CCN(c3ccc(C(=O)NS(=O)(=O)c4ccc(NCC5CCOCC5)c([N+](=O)[O-])c4)c(Oc4cnc5[nH]ccc5c4)c3)CC2)=C(c2ccc(Cl)cc2)C1 + CN1CCN(c2cc(C(=O)Nc3cc4cc(-c5cnn(C)c5)ccc4cn3)ccn2)CC1 — what was its viability, T/C? 0.36

Reported viability, T/C, molecule COc1c(OCCCN2CCOCC2)ccc2c3n(c(=NC(=O)c4cnc(N)nc4)nc12)CCN3 + CN1CCN(c2cc(C(=O)Nc3cc4cc(-c5cnn(C)c5)ccc4cn3)ccn2)CC1 : ____ 0.38

Report viability, T/C for CC(Nc1ccc2c(c1)OCCn1cc(N3C(=O)OCC3C(F)F)nc1-2)C(N)=O (stereo not given) + CN1CCN(c2cc(C(=O)Nc3cc4cc(-c5cnn(C)c5)ccc4cn3)ccn2)CC1 please. 0.09
